target entity: natural β-amyloid peptide β-AP1-40 (human)
Sequence (peptide, as listed by the source): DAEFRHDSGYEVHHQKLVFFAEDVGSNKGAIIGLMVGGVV
procedure text: cell-based or functional assay
* marks the point of attachment. Cholyl = C[C@H](CCC(=O)*)[C@H]1CC[C@H]2[C@@H]3[C@H](O)C[C@@H]4C[C@H](O)CC[C@]4(C)[C@H]3C[C@H](O)[C@]12C
measured property: % Inhibition of Plateau; nucleation assay; 100 mole %

Look over these answered cases.
{"binder": "Cholyl-KLVF-NH2 (SMILES CC(C)C[C@H](NC(=O)[C@H](CCCCN)NC(=O)CC[C@@H](C)[C@H]1CC[C@H]2[C@@H]3[C@H](O)C[C@@H]4C[C@H](O)CC[C@]4(C)[C@H]3C[C@H](O)[C@]12C)C(=O)N[C@H](C(=O)N[C@@H](Cc1ccccc1)C(N)=O)C(C)C) [cholyl-Aβ16-19-amide (PPI-321 as printed in Table IV)]", "assay result": "~0%"}
{"binder": "H-KLVFF-OH [unmodified Aβ16-20]", "assay result": "~0%"}

Now examine the next entry.
Prompt: Complete the entry with % Inhibition of Plateau; nucleation assay; 100 mole % for Cholyl-QKLVF-OH (SMILES CC(C)C[C@H](NC(=O)[C@H](CCCCN)NC(=O)[C@H](CCC(N)=O)NC(=O)CC[C@@H](C)[C@H]1CC[C@H]2[C@@H]3[C@H](O)C[C@@H]4C[C@H](O)CC[C@]4(C)[C@H]3C[C@H](O)[C@]12C)C(=O)N[C@H](C(=O)N[C@@H](Cc1ccccc1)C(=O)O)C(C)C) [cholyl-Aβ15-19]
Response: ~0%
